readoutLabel: melting point

Problem: Please report the recorded melting point for `COc1cc(C)cc(-c2n[nH]cc2-c2cc(NC[C@H](C)O)nc(Cl)n2)c1` .
Result: 256 °C

Problem: Queued: `CCc1cc([N+](=O)[O-])c(N)cc1Cl`
Result: 100 to 101 °C

Problem: Queued: `COc1ccc2c(c1)Cc1cc(F)ccc1C(=O)C2`
Result: 129 to 130 °C

Problem: Queued: `O=S1(=O)CNc2cccc3cccc1c23`
Result: 206 to 207 °C

Problem: Queued: O=C(O)C1Oc2cc3onc(-c4ccccc4)c3cc2O1 (stereo not given)
Result: 202 to 204 °C

Problem: Queued: `Cc1cc(-c2ccc(F)cc2)n(-c2ccc(S(C)(=O)=O)cc2)c1`
Result: 151 to 154 °C

Problem: Queued: `Cc1cc(C)c(/C=C/[C@@H](O)C[C@@H](O)CC(=O)OCOC(=O)C(C)(C)C)c(-c2ccc(F)c(C)c2)c1`
Result: 97 to 98 °C

Problem: Queued: `CC(C)N(CCN1C(=O)/C(=N/NC(=O)Nc2ccccc2)c2ccccc21)C(C)C`
Result: 157 to 159 °C

Problem: Queued: `CCc1nc(NC(=S)NCCc2ccccc2Oc2ccccc2)cs1`
Result: 168 °C

Problem: Queued: `COC(=O)CCCc1cc2nc(Cl)ccc2n1S(=O)(=O)c1ccc(Cl)cc1`
Result: 108 °C
